# experimental-details: isobaric coefficient of expansion
# study-conditions: 288.15 K; 40000 kPa; Liquid; DSC with Pressure Shift
quantity-measured: isobaric coefficient of expansion

q: Please list isobaric coefficient of expansion recorded for the compound "CCO"
a: 0.000875 1/K

q: Please list isobaric coefficient of expansion recorded for the compound "CCCCCCCO"
a: 0.000716 1/K

q: Please list isobaric coefficient of expansion recorded for the compound CCCC(C)O (stereo not given)
a: 0.000788 1/K

q: Please list isobaric coefficient of expansion recorded for the compound "CCCCCCCCO"
a: 0.000707 1/K

q: Please list isobaric coefficient of expansion recorded for the compound "CCCCCCCCCO"
a: 0.000705 1/K

q: Please list isobaric coefficient of expansion recorded for the compound "CCCCCN"
a: 0.000958 1/K

q: Please list isobaric coefficient of expansion recorded for the compound "CCC(O)CC"
a: 0.000823 1/K

q: Please list isobaric coefficient of expansion recorded for the compound "CCCCCCO"
a: 0.000731 1/K

q: Please list isobaric coefficient of expansion recorded for the compound "CCCCCO"
a: 0.000747 1/K

q: Please list isobaric coefficient of expansion recorded for the compound "CCCO"
a: 0.000816 1/K
